# TESTED ON: Glycine N-methyltransferase (Homo sapiens)
# Sequence (whole entry): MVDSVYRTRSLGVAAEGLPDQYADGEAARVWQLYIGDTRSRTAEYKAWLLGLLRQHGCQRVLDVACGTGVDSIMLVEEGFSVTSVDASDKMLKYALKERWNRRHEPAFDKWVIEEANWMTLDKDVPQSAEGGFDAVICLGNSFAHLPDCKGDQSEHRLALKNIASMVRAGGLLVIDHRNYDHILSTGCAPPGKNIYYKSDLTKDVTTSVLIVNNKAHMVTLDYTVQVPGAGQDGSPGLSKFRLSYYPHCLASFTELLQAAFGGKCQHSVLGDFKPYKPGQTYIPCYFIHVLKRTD
# METHOD DESCRIPTION: Induction of GNMT in human H7GPL cells assessed as fold increase in promoter-driven luciferase reporter expression at 10 uM measured after 24 hrs by luminescence assay relative to control
# Type: cell-based
# CONDITION CONTEXT: filed as activator
READOUT LABEL: fold change (FC)
Give only the figure.

A selection of reference data follows.
CHEM SMILES | READOUT LABEL | DATA VALUE
O=C(N/N=C/c1ccc2ccccc2n1)c1cc2ccccc2cc1O | fold change (FC) | 1.01
C/C(=N\NC(=O)c1ccccc1)c1ccccn1 | fold change (FC) | 6.96
C/C(=N\NC(=O)c1cc2ccccc2cc1O)c1ccco1 | fold change (FC) | 1.18
C/C(=N\NC(=O)c1c(O)cccc1O)c1ccccn1 | fold change (FC) | 11
C/C(=N\NC(=O)c1ccc(O)cc1O)c1ccccn1 | fold change (FC) | 1.5

Attention now shifts to the item below.
Entry O=C(N/N=C/c1ccccn1)c1cc2ccccc2cc1O needs its fold change (FC) filled in; supply it. 1.09

* * *

Reported fold change (FC) is given for each of the following compounds.
# TESTED ON: Glycine N-methyltransferase (Homo sapiens) (UniProt Q14749)
# METHOD DESCRIPTION: Induction of GNMT in human H7GPL cells assessed as fold increase in promoter-driven luciferase reporter expression at 10 uM measured after 24 hrs by luminescence assay relative to control
# Type: cell-based
# CONDITION CONTEXT: filed as activator

CHEM SMILES | fold change (FC)
C/C(=N\NC(=O)c1ccccc1O)c1ccccn1 | 9.79
C/C(=N\NC(=O)c1cc2ccccc2cc1O)c1cccs1 | 1.42
C/C(=N\NC(=O)c1cc2ccccc2cc1O)c1ccc2ccccc2n1 | 0.99
O=C(N/N=C/c1ccc[nH]1)c1cc2ccccc2cc1O | 1.56
C/C(=N\NC(=O)c1cc2ccccc2cc1O)c1ccccc1 | 1.37
O=C(NN=C(c1ccccn1)c1ccccn1)c1cc2ccccc2cc1O | 5.94

Entry C/C(=N\NC(=O)c1cc2ccccc2cc1O)c1ccc[nH]1 needs its fold change (FC) filled in; supply it. 1.04

Entry O=C(N/N=C/c1ccccn1)c1ccccc1O needs its fold change (FC) filled in; supply it. 0.88

Entry C/C(=N\NC(=O)c1cccnc1N)c1ccccn1 needs its fold change (FC) filled in; supply it. 8.26

Entry O=C(N/N=C/c1ccco1)c1cc2ccccc2cc1O needs its fold change (FC) filled in; supply it. 1.04

Entry O=C(NN=C(c1ccccn1)c1ccccn1)c1ccc(O)cc1O needs its fold change (FC) filled in; supply it. 1.14

Entry O=C(NN=C(c1ccccn1)c1ccccn1)c1ccccc1O needs its fold change (FC) filled in; supply it. 5.86

* * *

Reported fold change (FC) is given for each of the following compounds.
# TESTED ON: Glycine N-methyltransferase (Homo sapiens)
# METHOD DESCRIPTION: Induction of GNMT in human H7GPL cells assessed as fold increase in promoter-driven luciferase reporter expression at 2.5 uM measured after 24 hrs by luminescence assay relative to control
# Type: cell-based
# CONDITION CONTEXT: filed as activator
Give only the figure.

A selection of reference data follows.
CHEM SMILES | fold change (FC)
C/C(=N\NC(=O)c1ccc(O)cc1O)c1ccccn1 | 4.88
C/C(=N\NC(=O)c1cc2ccccc2cc1O)c1ccc2ccccc2n1 | 3.31
C/C(=N\NC(=O)c1cc2ccccc2cc1O)c1cccs1 | 1.24

GET fold change (FC) where system = Glycine N-methyltransferase (Homo sapiens) and item = C/C(=N\NC(=O)c1cc2ccccc2cc1O)c1cccnc1 1.33

GET fold change (FC) where system = Glycine N-methyltransferase (Homo sapiens) and item = C/C(=N\NC(=O)c1cc2ccccc2cc1O)c1ccco1 1.42

GET fold change (FC) where system = Glycine N-methyltransferase (Homo sapiens) and item = COc1ccccc1C(=O)N/N=C(\C)c1ccccn1 1.72

GET fold change (FC) where system = Glycine N-methyltransferase (Homo sapiens) and item = O=C(NN=C(c1ccccn1)c1ccccn1)c1ccc(O)cc1O 4.7

GET fold change (FC) where system = Glycine N-methyltransferase (Homo sapiens) and item = C/C(=N\NC(=O)c1ccccc1)c1ccccn1 0.59

GET fold change (FC) where system = Glycine N-methyltransferase (Homo sapiens) and item = C/C(=N\NC(=O)c1cc2ccccc2cc1O)c1ccc[nH]1 1.22

GET fold change (FC) where system = Glycine N-methyltransferase (Homo sapiens) and item = O=C(N/N=C/c1cccs1)c1cc2ccccc2cc1O 0.12

GET fold change (FC) where system = Glycine N-methyltransferase (Homo sapiens) and item = O=C(N/N=C/c1ccco1)c1cc2ccccc2cc1O 1.22

* * *

# TESTED ON: Glycine N-methyltransferase (Homo sapiens) (UniProt Q14749)
# METHOD DESCRIPTION: Induction of GNMT in human H7GPL cells assessed as fold increase in promoter-driven luciferase reporter expression at 10 uM measured after 24 hrs by luminescence assay relative to control
# Format: cell-based
# CONDITION CONTEXT: filed as activator
Assign 1 (yes) whenever fold change (FC) does not fall below 1; assign 0 (no) whenever it does.

CHEM SMILES | TESTED ON | CLASSIFICATION
C/C(=N\NC(=O)c1cc2ccccc2cc1O)c1ccc([N+](=O)[O-])cc1 | Glycine N-methyltransferase (Homo sapiens) (UniProt Q14749) | 0 (no)
C/C(=N\NC(=O)c1ccccc1N)c1ccccn1 | Glycine N-methyltransferase (Homo sapiens) (UniProt Q14749) | 1 (yes)
COc1ccccc1C(=O)N/N=C(\C)c1ccccn1 | Glycine N-methyltransferase (Homo sapiens) (UniProt Q14749) | 1 (yes)
COc1ccc(/C(C)=N/NC(=O)c2cc3ccccc3cc2O)cc1 | Glycine N-methyltransferase (Homo sapiens) (UniProt Q14749) | 0 (no)
C/C(=N\NC(=O)c1cc2ccccc2cc1O)c1cccnc1 | Glycine N-methyltransferase (Homo sapiens) (UniProt Q14749) | 1 (yes)

Check the entry C/C(=N\NC(=O)c1cccc(O)c1)c1ccccn1 : does fold change (FC) equal or exceed 1? 1 (yes)

Check the entry O=C(N/N=C/c1cccs1)c1cc2ccccc2cc1O : does fold change (FC) equal or exceed 1? 1 (yes)

* * *

# TESTED ON: Glycine N-methyltransferase (Homo sapiens) (UniProt Q14749)
# METHOD DESCRIPTION: Induction of GNMT in human H7GPL cells assessed as fold increase in promoter-driven luciferase reporter expression at 2.5 uM measured after 24 hrs by luminescence assay relative to control
# Assay type: cell-based
# CONDITION CONTEXT: filed as activator
Reported fold change (FC) is given for each of the following compounds.
Give only the figure.

A selection of reference data follows.
CHEM SMILES | fold change (FC)
O=C(N/N=C/c1ccc[nH]1)c1cc2ccccc2cc1O | 1.19
C/C(=N\NC(=O)c1ccccc1O)c1ccccn1 | 0.38
C/C(=N\NC(=O)c1cc2ccccc2cc1O)c1ccccc1 | 1.16
O=C(N/N=C/c1ccc2ccccc2n1)c1cc2ccccc2cc1O | 1.11
O=C(N/N=C/c1ccccn1)c1cc2ccccc2cc1O | 1.79

Entry O=C(NN=C(c1ccccn1)c1ccccn1)c1cc2ccccc2cc1O needs its fold change (FC) filled in; supply it. 7.56

Entry O=C(NN=C(c1ccccn1)c1ccccn1)c1ccccc1O needs its fold change (FC) filled in; supply it. 4.55

Entry C/C(=N\NC(=O)c1cc2ccccc2cc1O)c1ccc([N+](=O)[O-])cc1 needs its fold change (FC) filled in; supply it. 1.01

Entry C/C(=N\NC(=O)c1ccccc1N)c1ccccn1 needs its fold change (FC) filled in; supply it. 0.93

Entry C/C(=N\NC(=O)c1cccc(O)c1)c1ccccn1 needs its fold change (FC) filled in; supply it. 13.3

* * *

# TESTED ON: Glycine N-methyltransferase (Homo sapiens)
# METHOD DESCRIPTION: Induction of GNMT in human H7GPL cells assessed as fold increase in promoter-driven luciferase reporter expression at 2.5 uM measured after 24 hrs by luminescence assay relative to control
# Format: cell-based
# CONDITION CONTEXT: filed as activator
Reported fold change (FC) is given for each of the following molecules.
Give only the figure.

A selection of reference data follows.
CHEM SMILES | DATA VALUE
COc1ccc(/C(C)=N/NC(=O)c2cc3ccccc3cc2O)cc1 | 1.2
C/C(=N\NC(=O)c1c(O)cccc1O)c1ccccn1 | 0.61
C/C(=N\NC(=O)c1cc2ccccc2cc1O)c1ccccn1 | 6.7
C/C(=N\NC(=O)c1cccnc1N)c1ccccn1 | 11.1

Attention now shifts to the item below.
Entry O=C(N/N=C/c1ccccn1)c1ccccc1O needs its fold change (FC) filled in; supply it. 1.4

Taken from ChEMBL document CHEMBL5226313.
